- Assay info: in vivo
- Condition parameters: C57BL/6J, mouse, po, 10 mg/kg

# Smiles code, Readout unit, Cmax at 24 h
rows = [
    ("[O-][n+]1cc(O)cc(CCCc2ccc(Cl)c(C(F)(F)F)c2)c1", "µg/mL", 0.102),
]
